STUDY TARGET: BRD4-BD1 (Homo sapiens (Human), UniProt O60885)
MEASUREMENT PROTOCOL: BRD4-H4 Tetraacetylated Peptide Inhibition AlphaScreen
RECORDED CONDITIONS: GST-BRD4-BD1 (aa 44-168) / biotinylated Acetyl-Histone H4 (Lys5, 8, 12, 16) peptide
ATTRIBUTE MEASURED: pIC50
Worth noting: pIC50 values are minus log10 of concentrations stated in mol/L.

COMPOUND	pIC50
COC[C@H](C)n1c(-c2cn3c(C)nnc3c(NC(C)C)n2)nc2ccc(N3CCOC[C@@H]3C)cc21 [I-19]	7.24
COC[C@@H](C)n1c(-c2cn3c(C)nnc3c(NC(C)C)n2)nc2cnc(N3CCOCC3)cc21 [I-2]	6.48
CNc1nc(-c2nc3cnc(N4CCOCC4)cc3n2[C@H](C)COC)cn2c(C)nnc12 [I-11]	6.26
COC[C@H](C)n1c(-c2cn3c(C)nnc3c(NC(C)C)n2)nc2cc3c(cc21)N(C(C)C)S(=O)(=O)C3(C)C [I-21]	7.77
COC[C@H](C)n1c(-c2cn3c(C)nnc3c(NC(C)C)n2)nc2cnc(N3CCOC[C@@H]3C)cc21 [I-12]	7.29
COC[C@H](C)n1c(-c2cn3c(C)nnc3c(NC(C)C)n2)nc2ccc(N)cc21 [I-20]	6.80
Cc1nnc2c(NC(C)C)nc(-c3nc4cnc(N5CCOC[C@@H]5C)cc4n3C(C)CC3CC3)cn12 (stereo partly shown) [I-25]	8.05
Cc1nnc2c(NC(C)C)nc(-c3nc4cnc(N5CCOCC5)cc4n3C[C@H]3CCCO3)cn12 [I-10]	7.27
CNc1nc(-c2nc3cnc(N4CCOC[C@@H]4C)cc3n2[C@@H](C)COC)cn2c(C)nnc12 [I-13]	7.57
COC[C@H](C)n1c(-c2cn3c(C)nnc3c(NC(C)C)n2)nc2cc3c(cc21)N(C)C(=O)C3(C)C [I-16]	7.66

Provide pIC50, system BRD4-BD1 (Homo sapiens (Human), UniProt O60885), entry COC[C@H](C)n1c(-c2cn3c(C)nnc3c(NC(C)C)n2)nc2ccc(C3CCOCC3)cc21 [I-14]
7.31

Return reported pIC50 for target or system BRD4-BD1 (Homo sapiens (Human), UniProt O60885), item CCOCCn1c(-c2cn3c(C)nnc3c(NC(C)C)n2)nc2cnc(N3CCOCC3)cc21 [I-5] .
7.48

Return reported pIC50 for target or system BRD4-BD1 (Homo sapiens (Human), UniProt O60885), item COC[C@H](C)n1c(-c2cn3c(C)nnc3c(NC(C)C)n2)nc2ccc(N3CCOCC3)nc21 [I-28] .
7.16

Look up and report measured pIC50 (BRD4-BD1 (Homo sapiens (Human), UniProt O60885)) for the following compound: Cc1nnc2c(NC3CCN(C)CC3)nc(-c3nc4cnc(N5CCOCC5)cc4n3CCOC(C)C)cn12 [I-22]
7.46

meta.source: patent US9428513B2
